For each of the molecules below, state its fraction unbound.
test: Protein binding in rat plasma assessed as unbound fraction at 1 mg/kg administered as cassette dose; type: ADME, organism-based
One number for each entry.

CC(C)Oc1ccc(/N=c2\[nH]c(=O)n(CCCC(=O)O)c(=O)n2Cc2ccc(Cl)cc2)cc1Cl = 0.002
C[C@@H](Cn1c(=O)[nH]/c(=N\c2ccc(Oc3ccccn3)cc2)n(Cc2ccc(Cl)cc2)c1=O)C(=O)O = 0.01
Cc1ccc(Cn2c(=O)n(CC(C)(C)C(=O)O)c(=O)[nH]/c2=N\c2ccc(OC(C)C)c(Cl)c2)cc1 = 0.01
CC(C)Oc1ccc(Nc2nc(=O)n(CCO)c(=O)n2Cc2ccc(Cl)cc2)cc1Cl = 0.001
C[C@@H](Cn1c(=O)[nH]/c(=N\c2ccc(Oc3ccc(F)cn3)cc2)n(Cc2ccc(Cl)cc2)c1=O)C(=O)O = 0.011

Could you tell me fraction unbound for each of these molecules? They are listed below.
1. C[C@@H](Cn1c(=O)[nH]/c(=N\c2ccc(Oc3cncc(F)c3)cc2)n(Cc2ccc(Cl)cc2)c1=O)C(=O)O
2. CC(C)Oc1ccc(/N=c2\[nH]c(=O)n(CC(C)(C)C(=O)O)c(=O)n2Cc2ccc(Cl)cc2)cc1Cl
3. CC(C)COc1ccc(/N=c2\[nH]c(=O)n(C[C@H](C)C(=O)O)c(=O)n2Cc2ccc(Cl)cc2)cc1
4. CC(C)Oc1ccc(/N=c2\[nH]c(=O)n(C[C@@H](C)C(=O)O)c(=O)n2Cc2ccc(Cl)cc2)cc1Cl
5. C[C@@H](Cn1c(=O)[nH]/c(=N\c2ccc(Oc3nccs3)cc2)n(Cc2ccc(Cl)cc2)c1=O)C(=O)O
6. C[C@@H](Cn1c(=O)[nH]/c(=N\c2ccc(Oc3ccnc(F)c3)cc2)n(Cc2ccc(Cl)cc2)c1=O)C(=O)O
7. C[C@@H](Cn1c(=O)[nH]/c(=N\c2ccc(Oc3cccc(F)n3)cc2)n(Cc2ccc(Cl)cc2)c1=O)C(=O)O

Result:
0.02
0.003
0.025
0.002
0.006
0.013
0.007

Could you tell me fraction unbound for each of these molecules? They are listed below.
1. CC(C)Oc1ccc(/N=c2\[nH]c(=O)n(C[C@H](C)C(=O)O)c(=O)n2Cc2ccc(Cl)cc2)cc1
2. C[C@@H](Cn1c(=O)[nH]/c(=N\c2ccc(OC3CCC3)cc2)n(Cc2ccc(Cl)cc2)c1=O)C(=O)O
3. C[C@@H](Cn1c(=O)[nH]/c(=N\c2ccc(Oc3cnccn3)cc2)n(Cc2ccc(Cl)cc2)c1=O)C(=O)O

Result:
[0.068, 0.015, 0.018]

Problem: What value of fraction unbound has been recorded for this entry: Cc1ccc(Cn2c(=O)n(CCCC(=O)O)c(=O)[nH]/c2=N\c2ccc(OC(C)C)c(Cl)c2)cc1
Result: 0.002

Source of measurements: ChEMBL document CHEMBL5030545
